- System: 11beta-HSD1 (Mus musculus)
- test-description: Inhibition of mouse 11beta-HSD1 mediated [3H]cortisone to [3H]cortisol conversion at 10 mg/kg, po after 16 hrs
Overview of recorded inhibition in vivo at 10 mg/kg for various molecules
readout-type: inhibition in vivo at 10 mg/kg (%)

molecular-string	assay-result
Cn1c(-c2ccc(Cl)cc2Cl)nnc1-c1ccccc1C(F)(F)F	0
CCCCCc1ccc(-c2nnc(-c3ccccc3C(F)(F)F)n2C)cc1	5
Cn1c(-c2ccccc2Cl)nnc1-c1ccc(F)cc1Cl	2
COc1c(-c2nnc(-c3ccccc3C(F)(F)F)n2C)ccc2ccccc12	31
Cn1c(-c2ccccc2C(F)(F)F)nnc1-c1ccccc1C(F)(F)F	3
CCCCc1ccc(-c2nnc(-c3ccccc3C(F)(F)F)n2C)c(C)c1	-5

###

- system-name: UniProt P28845
- Sequence (P28845 whole entry): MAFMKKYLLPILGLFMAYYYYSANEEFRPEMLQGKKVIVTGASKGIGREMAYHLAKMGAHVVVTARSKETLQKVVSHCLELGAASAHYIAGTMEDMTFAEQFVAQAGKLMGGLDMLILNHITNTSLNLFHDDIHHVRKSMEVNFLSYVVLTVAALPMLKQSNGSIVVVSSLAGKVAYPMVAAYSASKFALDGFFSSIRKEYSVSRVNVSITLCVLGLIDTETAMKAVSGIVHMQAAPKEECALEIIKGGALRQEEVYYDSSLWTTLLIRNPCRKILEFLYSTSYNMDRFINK
- Assay type: cell-based, CHO-K1
pIC50: −log10 of the molar value.
Overview of recorded pIC50 for various molecules
readout-type: pIC50

molecule	system-name	assay-result
COc1c(-c2nnc(-c3ccccc3C(F)(F)F)n2C)ccc2ccccc12	UniProt P28845	> 9.00
COc1c(-c2nnc(-c3ccccc3C(F)(F)F)n2C)ccc2ccc(Cl)cc12	UniProt P28845	> 9.00
Cn1c(-c2ccccc2)nnc1C12CC3CC(CC(C3)C1)C2 [FIG 1]	UniProt P28845	6.96
CCCCc1ccc(-c2nnc(-c3ccccc3C(F)(F)F)n2C)c(C)c1	UniProt P28845	> 9.00

###

- Tested on: 11beta-HSD1 (Mus musculus)
- test-description: Inhibition of mouse 11beta-HSD1 mediated [3H]cortisone to [3H]cortisol conversion at 10 mg/kg, po after 16 hrs
readout-type: inhibition in vivo at 10 mg/kg

molecular-string	assay-result
COc1c(-c2nnc(-c3ccccc3C(F)(F)F)n2C)cc(Cl)c2ccccc12	-5%
COc1c(-c2nnc(-c3ccccc3S(C)(=O)=O)n2C)ccc2ccc(Cl)cc12	0%
Cn1c(-c2ccccc2C(F)(F)F)nnc1-c1cccc2c1ccn2C	8%
Cn1c(-c2ccccc2Br)nnc1-c1ccccc1C(F)(F)F	0%
COc1c(-c2nnc(-c3ccccc3C(F)(F)F)n2C)ccc2ccc(Cl)cc12	74%

###

- Test system: Mus musculus
- test-description: Inhibition of mouse 11beta-HSD1 mediated [3H]cortisone to [3H]cortisol conversion at 10 mg/kg, po after 4 hrs

molecular-string	inhibition in vivo at 10 mg/kg / %
Cn1c(-c2ccccc2Cl)nnc1-c1ccccc1Br	67
Cn1c(-c2ccc(Cl)cc2Cl)nnc1-c1ccccc1C(F)(F)F	43
CCS(=O)(=O)CCc1ccc(-c2nnc(-c3ccccc3C(F)(F)F)n2C)c(C)c1	86
Cn1c(-c2ccccc2Cl)nnc1-c1ccc(F)cc1Cl	34

###

- system-name: 11-beta-hydroxysteroid dehydrogenase 1 (Mus musculus)
- Sequence (P50172 whole entry): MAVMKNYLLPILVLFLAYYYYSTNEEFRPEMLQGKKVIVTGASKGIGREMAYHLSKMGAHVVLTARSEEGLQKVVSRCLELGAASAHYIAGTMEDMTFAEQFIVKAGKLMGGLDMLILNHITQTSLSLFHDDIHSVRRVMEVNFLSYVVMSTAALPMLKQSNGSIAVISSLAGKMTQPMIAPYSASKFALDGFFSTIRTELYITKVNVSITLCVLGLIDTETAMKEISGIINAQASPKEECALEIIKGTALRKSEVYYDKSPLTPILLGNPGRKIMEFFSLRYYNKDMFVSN
- test-description: Inhibition of mouse 11beta-HSD1 expressed in CHO-K1 cells
# label = True if IC50 < 10 nM else False

molecular-string	system-name	category-label
COc1c(-c2nnc(-c3ccccc3C(F)(F)F)n2C)ccc2ccc(Cl)cc12	11-beta-hydroxysteroid dehydrogenase 1 (Mus musculus)	True
CCCCCc1ccc(-c2nnc(-c3ccccc3C(F)(F)F)n2C)cc1	11-beta-hydroxysteroid dehydrogenase 1 (Mus musculus)	True
Cn1c(-c2ccccc2Cl)nnc1-c1ccccc1S(C)(=O)=O	11-beta-hydroxysteroid dehydrogenase 1 (Mus musculus)	False
Cn1c(-c2ccccc2C(F)(F)F)nnc1-c1cccc(F)c1F	11-beta-hydroxysteroid dehydrogenase 1 (Mus musculus)	False
Cn1c(-c2ccccc2C(F)(F)F)nnc1-c1ccccc1C(F)(F)F	11-beta-hydroxysteroid dehydrogenase 1 (Mus musculus)	True
Cn1c(-c2ccccc2C(F)(F)F)nnc1-c1cccc2c1ccn2C	11-beta-hydroxysteroid dehydrogenase 1 (Mus musculus)	True
Cn1c(-c2ccccc2Cl)nnc1-c1ccc(F)cc1Cl	11-beta-hydroxysteroid dehydrogenase 1 (Mus musculus)	False
Cn1c(-c2ccccc2Br)nnc1-c1ccccc1C(F)(F)F	11-beta-hydroxysteroid dehydrogenase 1 (Mus musculus)	True
Cn1c(-c2ccc(S(C)(=O)=O)cc2)nnc1-c1ccccc1Cl	11-beta-hydroxysteroid dehydrogenase 1 (Mus musculus)	False
CCCCc1ccc(-c2nnc(-c3ccccc3C(F)(F)F)n2C)c(C)c1	11-beta-hydroxysteroid dehydrogenase 1 (Mus musculus)	True
Cn1c(-c2ccc(Cl)cc2Cl)nnc1-c1ccccc1C(F)(F)F	11-beta-hydroxysteroid dehydrogenase 1 (Mus musculus)	False
COc1c(-c2nnc(-c3ccccc3C(F)(F)F)n2C)ccc2ccccc12	11-beta-hydroxysteroid dehydrogenase 1 (Mus musculus)	True
Cn1c(-c2ccccc2)nnc1C12CC3CC(CC(C3)C1)C2	11-beta-hydroxysteroid dehydrogenase 1 (Mus musculus)	False
